Recorded relative viability, one value per entry.
Tested on: LCLC-103H
Assay: relative viability (nuclei count vs DMSO), 5 days (fraction); higher = more cells survive
Conditions: first compound 0.1265 µM
Respond with the number and no other words.

Answered cases to consult:
# compound, parameter, quantitative result
records = [
    ("Clc1ccc(Nc2nnc(Cc3ccncc3)c3ccccc23)cc1 [Vatalanib] + O=C(c1cc(Cc2n[nH]c(=O)c3ccccc23)ccc1F)N1CCN(C(=O)C2CC2)CC1 [Olaparib] (partner 8 µM)", "relative viability", 0.706),
    ("COc1cc(N2CCC(C(N)=O)CC2)ccc1Nc1nc(N)c(Cl)c(Nc2ccccc2S(=O)(=O)C(C)C)n1 [HG-5-88-01] + Cc1nc(Nc2ncc(C(=O)Nc3c(C)cccc3Cl)s2)cc(N2CCN(CCO)CC2)n1 [Dasatinib] (partner 0.075 µM)", "relative viability", 0.464),
    ("C[C@@H]1CN(CC(=O)Nc2ccc3c(c2)Cc2cccc(-c4cc(=O)cc(N5CCOCC5)o4)c2S3)C[C@H](C)O1 + N=C(N)NC(=N)NCCc1ccccc1 [Phenformin] (partner 250 µM)", "relative viability", 0.299),
    ("C[C@@H]1CN(CC(=O)Nc2ccc3c(c2)Cc2cccc(-c4cc(=O)cc(N5CCOCC5)o4)c2S3)C[C@H](C)O1 + CCNC(=O)c1noc(-c2cc(C(C)C)c(O)cc2O)c1-c1ccc(CN2CCOCC2)cc1 [Luminespib] (partner 0.01 µM)", "relative viability", 0.971),
    ("C[C@@H]1CN(CC(=O)Nc2ccc3c(c2)Cc2cccc(-c4cc(=O)cc(N5CCOCC5)o4)c2S3)C[C@H](C)O1 + CS(=O)(=O)N1CCN(Cc2cc3nc(-c4cccc5[nH]ncc45)nc(N4CCOCC4)c3s2)CC1 [Pictilisib] (partner 1 µM)", "relative viability", 0.557),
    ("C[C@@H]1CN(CC(=O)Nc2ccc3c(c2)Cc2cccc(-c4cc(=O)cc(N5CCOCC5)o4)c2S3)C[C@H](C)O1 + C[C@@H](Oc1cc(-c2cnn(C3CCNCC3)c2)cnc1N)c1c(Cl)ccc(F)c1Cl [Crizotinib] (partner 1 µM)", "relative viability", 1.03),
]

Please give the measured relative viability for this compound: Clc1ccc(Nc2nnc(Cc3ccncc3)c3ccccc23)cc1 [Vatalanib] + NC(=O)Nc1cc(-c2cccc(F)c2)sc1C(=O)N[C@H]1CCCNC1 [AZD7762] (partner 0.2 µM)
0.714

----------
System: NCI-H2170
Assay: relative viability (nuclei count vs DMSO), 5 days (fraction); higher = more cells survive
Settings: first compound 0.4 µM
Classes based on relative viability: low value = under 0.4, medium value = from 0.4 up to 0.9, high value = 0.9 and over

// below: answered compounds
# compound, class assignment
data = [
    ("C[C@@H]1CN(CC(=O)Nc2ccc3c(c2)Cc2cccc(-c4cc(=O)cc(N5CCOCC5)o4)c2S3)C[C@H](C)O1 + CS(=O)(=O)N1CCN(Cc2cc3nc(-c4cccc5[nH]ncc45)nc(N4CCOCC4)c3s2)CC1 [Pictilisib] (partner 1 µM)", "low value"),
    ("Clc1ccc(Nc2nnc(Cc3ccncc3)c3ccccc23)cc1 [Vatalanib] + COc1cc2c(Oc3ccc(NC(=O)C4(C(=O)Nc5ccc(F)cc5)CC4)cc3F)ccnc2cc1OCCCN1CCOCC1 [Foretinib] (partner 0.25 µM)", "high value"),
    ("Clc1ccc(Nc2nnc(Cc3ccncc3)c3ccccc23)cc1 [Vatalanib] + Nc1nc2[nH]cc(CCc3ccc(C(=O)N[C@@H](CCC(=O)O)C(=O)O)cc3)c2c(=O)[nH]1 [Pemetrexed] (partner 0.2 µM)", "low value"),
]

Tag the class for C[C@@H]1CN(CC(=O)Nc2ccc3c(c2)Cc2cccc(-c4cc(=O)cc(N5CCOCC5)o4)c2S3)C[C@H](C)O1 + O=C(c1cc(Cc2n[nH]c(=O)c3ccccc23)ccc1F)N1CCN(C(=O)C2CC2)CC1 [Olaparib] (partner 8 µM)
medium value

Note: place this compound into its band. Item: COc1cc(N2CCC(C(N)=O)CC2)ccc1Nc1nc(N)c(Cl)c(Nc2ccccc2S(=O)(=O)C(C)C)n1 [HG-5-88-01] + Cc1nc(NC(=O)N2CCC[C@H]2C(N)=O)sc1-c1ccnc(C(C)(C)C(F)(F)F)c1 [Alpelisib] (partner 2 µM)
medium value

The entry to classify is COc1cc(N2CCC(C(N)=O)CC2)ccc1Nc1nc(N)c(Cl)c(Nc2ccccc2S(=O)(=O)C(C)C)n1 [HG-5-88-01] + C[C@@H](Oc1cc(-c2cnn(C3CCNCC3)c2)cnc1N)c1c(Cl)ccc(F)c1Cl [Crizotinib] (partner 1 µM) ; which class holds it?
high value

Any idea which band Clc1ccc(Nc2nnc(Cc3ccncc3)c3ccccc23)cc1 [Vatalanib] + CC(=O)c1c(C)c2cnc(Nc3ccc(N4CCNCC4)cn3)nc2n(C2CCCC2)c1=O [Palbociclib] (partner 0.5 µM) is in?
low value

Sort C[C@@H]1CN(CC(=O)Nc2ccc3c(c2)Cc2cccc(-c4cc(=O)cc(N5CCOCC5)o4)c2S3)C[C@H](C)O1 + CC(=O)c1c(C)c2cnc(Nc3ccc(N4CCNCC4)cn3)nc2n(C2CCCC2)c1=O [Palbociclib] (partner 0.5 µM) into one of the categories.
medium value

----------
relative viability listing for selected compounds.
Tested on: COR-L23
Experiment: relative viability (nuclei count vs DMSO), 5 days (fraction); higher = more cells survive
Settings: first compound 0.4 µM
Give only the figure.

# compound, relative viability
data = [
    ("C[C@@H]1CN(CC(=O)Nc2ccc3c(c2)Cc2cccc(-c4cc(=O)cc(N5CCOCC5)o4)c2S3)C[C@H](C)O1 + O=C(c1cc(Cc2n[nH]c(=O)c3ccccc23)ccc1F)N1CCN(C(=O)C2CC2)CC1 [Olaparib] (partner 8 µM)", 0.323),
    ("COc1cc(N2CCC(C(N)=O)CC2)ccc1Nc1nc(N)c(Cl)c(Nc2ccccc2S(=O)(=O)C(C)C)n1 [HG-5-88-01] + CS(=O)(=O)CCNCc1ccc(-c2ccc3ncnc(Nc4ccc(OCc5cccc(F)c5)c(Cl)c4)c3c2)o1 [Lapatinib] (partner 2 µM)", 0.957),
    ("COc1cc(N2CCC(C(N)=O)CC2)ccc1Nc1nc(N)c(Cl)c(Nc2ccccc2S(=O)(=O)C(C)C)n1 [HG-5-88-01] + CCNC(=O)c1noc(-c2cc(C(C)C)c(O)cc2O)c1-c1ccc(CN2CCOCC2)cc1 [Luminespib] (partner 0.01 µM)", 0.589),
]

Value lookup for relative viability; key = C[C@@H]1CN(CC(=O)Nc2ccc3c(c2)Cc2cccc(-c4cc(=O)cc(N5CCOCC5)o4)c2S3)C[C@H](C)O1 + COc1cc2c(Oc3ccc(NC(=O)C4(C(=O)Nc5ccc(F)cc5)CC4)cc3F)ccnc2cc1OCCCN1CCOCC1 [Foretinib] (partner 0.25 µM)
1.02

Can you look up the measured relative viability of COc1cc(N2CCC(C(N)=O)CC2)ccc1Nc1nc(N)c(Cl)c(Nc2ccccc2S(=O)(=O)C(C)C)n1 [HG-5-88-01] + C[C@]1(O)C[C@@H](c2nc(-c3ccc4ccc(-c5ccccc5)nc4c3)c3c(N)nccn32)C1 [Linsitinib] (partner 1 µM) for me?
0.872

I would be grateful if you could share the reported relative viability for Clc1ccc(Nc2nnc(Cc3ccncc3)c3ccccc23)cc1 [Vatalanib] + CC(=O)c1c(C)c2cnc(Nc3ccc(N4CCNCC4)cn3)nc2n(C2CCCC2)c1=O [Palbociclib] (partner 0.5 µM) .
0.322

Reported relative viability, compound Clc1ccc(Nc2nnc(Cc3ccncc3)c3ccccc23)cc1 [Vatalanib] + CCNC(=O)c1noc(-c2cc(C(C)C)c(O)cc2O)c1-c1ccc(CN2CCOCC2)cc1 [Luminespib] (partner 0.01 µM) : ____
0.835

Give the measured relative viability of C[C@@H]1CN(CC(=O)Nc2ccc3c(c2)Cc2cccc(-c4cc(=O)cc(N5CCOCC5)o4)c2S3)C[C@H](C)O1 + C[C@@H](Oc1cc(-c2cnn(C3CCNCC3)c2)cnc1N)c1c(Cl)ccc(F)c1Cl [Crizotinib] (partner 1 µM) .
0.693

What value of relative viability has been reported for the following compound? C[C@@H]1CN(CC(=O)Nc2ccc3c(c2)Cc2cccc(-c4cc(=O)cc(N5CCOCC5)o4)c2S3)C[C@H](C)O1 + C[C@]1(O)C[C@@H](c2nc(-c3ccc4ccc(-c5ccccc5)nc4c3)c3c(N)nccn32)C1 [Linsitinib] (partner 1 µM)
0.936

Record request: relative viability value, item Clc1ccc(Nc2nnc(Cc3ccncc3)c3ccccc23)cc1 [Vatalanib] + Cc1cc(Nc2cc(N3CCN(C)CC3)nc(Sc3ccc(NC(=O)C4CC4)cc3)n2)n[nH]1 [Tozasertib] (partner 0.1 µM)
0.206

Bench note: what relative viability did C[C@@H]1CN(CC(=O)Nc2ccc3c(c2)Cc2cccc(-c4cc(=O)cc(N5CCOCC5)o4)c2S3)C[C@H](C)O1 + CC(=O)c1c(C)c2cnc(Nc3ccc(N4CCNCC4)cn3)nc2n(C2CCCC2)c1=O [Palbociclib] (partner 0.5 µM) show?
0.379

Fill in the blank: the reported relative viability of COc1cc(N2CCC(C(N)=O)CC2)ccc1Nc1nc(N)c(Cl)c(Nc2ccccc2S(=O)(=O)C(C)C)n1 [HG-5-88-01] + Cc1nc(NC(=O)N2CCC[C@H]2C(N)=O)sc1-c1ccnc(C(C)(C)C(F)(F)F)c1 [Alpelisib] (partner 2 µM) is ____.
0.68

Item under review: C[C@@H]1CN(CC(=O)Nc2ccc3c(c2)Cc2cccc(-c4cc(=O)cc(N5CCOCC5)o4)c2S3)C[C@H](C)O1 + Nc1ncn([C@H]2C[C@H](O)[C@@H](CO)O2)c(=O)n1 [Decitabine] (partner 2 µM) . Reported relative viability?
0.569

I would be grateful if you could share the reported relative viability for Clc1ccc(Nc2nnc(Cc3ccncc3)c3ccccc23)cc1 [Vatalanib] + O=C(c1cc(Cc2n[nH]c(=O)c3ccccc23)ccc1F)N1CCN(C(=O)C2CC2)CC1 [Olaparib] (partner 8 µM) .
0.402
